Tested on: MDA-MB-435
Experiment: NCI tumour cell line growth inhibition, 48 h
Would you kindly list TGI for each of these molecules?

Prompt: Fill in: TGI of COc1ccc(OCc2nc3cc(C(F)(F)F)ccc3nc2-c2ccccc2)cc1 is ___
Response: > 100 µM

Prompt: Fill in: TGI of CCN(CC)CCCNc1nc(=O)[nH]c(C)c1C(=O)Nc1cccc2cc3ccccc3cc12 is ___
Response: > 100 µM

Prompt: Fill in: TGI of O=C(/C=C/c1csc(-c2ccccc2)n1)NCc1ccc(C(=O)NCCc2ccccc2)cc1 is ___
Response: > 100 µM

Prompt: Fill in: TGI of CC(=O)OCC1OC(SC2=N/C(=C\c3cc4c(=O)c5ccccc5sc4s3)C(=O)N2c2ccccc2)C(OC(C)=O)C(OC(C)=O)C1OC(C)=O (centres undefined) is ___
Response: > 100 µM

Prompt: Fill in: TGI of CC12CCC(CC1=O)C2(C)CCC(N)=O (centres undefined) is ___
Response: > 100 µM

Prompt: Fill in: TGI of Cn1cccc1-c1cc(-c2cccs2)nc(N)c1C#N is ___
Response: > 100 µM

Prompt: Fill in: TGI of COc1cccc(-c2c(C#N)c(N)nc3c2CCS(=O)(=O)c2ccc(C)cc2-3)c1 is ___
Response: > 100 µM

Prompt: Fill in: TGI of O=C(CCC(NC(=O)OCc1ccccc1)C(=O)OCc1ccccc1)Nc1ccc(OCc2ccccc2)cc1 (centres undefined) is ___
Response: > 31.6 µM

Prompt: Fill in: TGI of COc1ccc(OC)c(/C=C2\SC(=S)NC2=O)c1 is ___
Response: > 100 µM

Prompt: Fill in: TGI of COc1cc(C=C2C(C)=NN(c3cccc(Cl)c3)C23SCC(=O)N3c2nc3ccccc3s2)ccc1O (centres undefined) is ___
Response: > 100 µM

Prompt: Fill in: TGI of CCCCCCCCCCCC(=O)Oc1c(Cl)cc(Cl)c(OC(=O)C(=O)Oc2c(Cl)cc(Cl)c(OC(=O)CCCCCCCCCCC)c2Cl)c1Cl is ___
Response: > 100 µM

Prompt: Fill in: TGI of CCOC(=O)CSc1nc(N)c2c(-c3ccc(OC)c(OC)c3)c3c(nc2n1)CCCC3 is ___
Response: > 100 µM

Prompt: Fill in: TGI of S=c1sc2c(s1)SCCCCSCCCCSc1sc(=S)sc1SCCCCSCCCCS2 is ___
Response: > 100 µM

Prompt: Fill in: TGI of NCCOCCOCCNc1nc(Cc2ccccc2)nc(NCCCN2CCCC2=O)n1 is ___
Response: > 100 µM

Prompt: Fill in: TGI of Cn1c(=O)c2c(nc(-n3nc(-c4ccc(Cl)cc4)cc3N)n2C)n(C)c1=O is ___
Response: > 100 µM

Prompt: Fill in: TGI of Nc1ncnc2ccc(Sc3ccc4ncnc(N)c4c3)cc12 is ___
Response: > 100 µM

Prompt: Fill in: TGI of O=C1CC(c2ccc(O)cc2)C2(O1)C(=O)OC(C(O)CO)C2O (centres undefined) is ___
Response: > 100 µM

Prompt: Fill in: TGI of C[C@@H]1C[C@H]2CC[C@H](O2)[C@H](C)C(=O)O[C@@H](C)C[C@@H]2CC[C@@H](O2)[C@@H](C)C(=O)O[C@H](C)C[C@H]2CC[C@H](O2)[C@H](C)C(=O)O[C@@H](C)C[C@@H]2CC[C@@H](O2)[C@@H](C)C(=O)O1 is ___
Response: > 49.3 µM

Prompt: Fill in: TGI of COc1ccc(-c2nn3c(-c4cc(F)c(Cl)cc4Cl)nnc3s2)cc1 is ___
Response: > 100 µM

Prompt: Fill in: TGI of CCc1nccc2c1nc(-c1nonc1N)n2CC is ___
Response: > 25 µM

Prompt: Fill in: TGI of Cc1nc(N)nc(N)c1-c1ccc(Cl)c(Cl)c1 is ___
Response: > 100 µM

Prompt: Fill in: TGI of C=CCOc1ccc(/C(N=Nc2ccc([N+](=O)[O-])cc2)=N/NC(=O)c2ccccc2)cc1OC is ___
Response: > 100 µM

Prompt: Fill in: TGI of CN(CC1(CO)CCC1)c1cc(Cl)nc(N)n1 is ___
Response: > 100 µM

Prompt: Fill in: TGI of CC(=O)NC(CS/N=N/c1nc[nH]c1C(N)=O)C(=O)O (centres undefined) is ___
Response: > 100 µM

----------
Tested on: DMS 273 small cell lung
Assay: NCI tumour cell line growth inhibition, 48 h
Value Kind: TGI

Prompt: Fill in: TGI of COc1cc(OC)c2c(c1)C(=O)C(CC(C)O)=CC2=O (stereo not given) is ___
Response: 37.6 µM

Prompt: Fill in: TGI of Cc1cccc2nc3c(C(=O)NCCN(C)C)cccc3cc12 is ___
Response: 3.57 µM

Prompt: Fill in: TGI of CC(=O)OCC1OC(OC2C(CSC3OC(COC(C)=O)C(OC(C)=O)C(OC(C)=O)C3OC(C)=O)OC(OC(C)=O)C(OC(C)=O)C2OC(C)=O)C(OC(C)=O)C(OC(C)=O)C1OC(C)=O (stereo not given) is ___
Response: > 100 µM

Prompt: Fill in: TGI of O=[N+]([O-])C1C2C=CC(C2)[C@H]1c1ccco1 (stereo not given in full) is ___
Response: > 100 µM

Prompt: Fill in: TGI of CC(C)[C@H]1CO[C@]2(C)[C@@H]3CN(Cc4ccccc4)C[C@@H]3C(=O)N12 is ___
Response: > 100 µM

----------
Would you kindly list GI50 for each of these molecules?
System: M14 melanoma
Test: NCI tumour cell line growth inhibition, 48 h

Prompt: Fill in: GI50 of COc1ccc(-c2n/c(=C\c3c(O)[nH]c4ccc(OC)cc34)cc3c2=Nc2ccccc2-3)cc1 is ___
Response: 1980 nM

Prompt: Fill in: GI50 of COc1ccc(-c2csc(N(C(=O)N3CCN(c4cc5c(cc4F)c(=O)c(C(=O)O)cn5C4CC4)CC3)c3ccccc3)n2)cc1 is ___
Response: 3700 nM

Prompt: Fill in: GI50 of COc1ccc(/C(C#N)=C/c2ccccc2OC)cc1 is ___
Response: 4800 nM

Prompt: Fill in: GI50 of C=CCOc1cccc(/C=C2\SC(=Nc3ccc(O)cc3)NC2=O)c1 is ___
Response: 384 nM

Prompt: Fill in: GI50 of Cn1cc(-c2ccc3occ(-c4cccc(-c5ccncc5)c4)c3n2)cn1 is ___
Response: 457 nM

Prompt: Fill in: GI50 of COC(C(=O)[O][Ge]([CH3])([CH3])[CH3])c1ccccc1 (centres undefined) is ___
Response: > 100000 nM

Prompt: Fill in: GI50 of COc1ccc(/C=C2\CCCC3=C2N=C2SC(C)=NN2C3c2ccc(OC)c(OC)c2)cc1OC (centres undefined) is ___
Response: 5730 nM

Prompt: Fill in: GI50 of CC[C@@H](C(=O)O)C1CC[C@H](C)C([C@@H](C)[C@H](O)[C@H](C)C(=O)[C@H](CC)C2O[C@]3(C=C[C@@H](O)[C@]4(CC[C@@](C)(C5CC[C@](O)(CC)[C@H](C)O5)O4)O3)[C@H](C)C[C@@H]2C)O1 (some centres undefined) is ___
Response: 1290 nM

Prompt: Fill in: GI50 of NCCOCCOCCNc1nc(Cc2ccccc2)nc(NCCCN2CCCC2=O)n1 is ___
Response: > 100000 nM

----------
Test system: HCT-116 colon
Experiment: NCI tumour cell line growth inhibition, 48 h
Value Kind: TGI

Prompt: Fill in: TGI of COc1cccc(-c2c(C#N)c(N)nc3c2CCS(=O)(=O)c2ccc(C)cc2-3)c1 is ___
Response: > 100 µM

Prompt: Fill in: TGI of O=c1cc(-c2ccccc2)[nH]c2ccccc12 is ___
Response: > 100 µM

Prompt: Fill in: TGI of O=c1/c(=C/c2ccccc2F)sc2nc3ccccc3n12 is ___
Response: > 100 µM

Prompt: Fill in: TGI of CC(CCC(=O)O)[C@H]1CCC2[C@@H]3CC[C@@H]4CC(O)CC[C@]4(C)C3CC[C@@]21C (some centres not stated) is ___
Response: > 100 µM

Prompt: Fill in: TGI of CC1SC2=NC3=C(c4ccccc4C3=O)C(c3ccc(F)cc3)N2C1=O (configuration not stated) is ___
Response: > 100 µM

Prompt: Fill in: TGI of COc1cc(OC(C)=O)cc2c(OC(C)=O)ccc(OC(C)=O)c12 is ___
Response: > 100 µM

Prompt: Fill in: TGI of O=C(N/N=C(/c1ccccc1)C(F)(F)F)c1ccncc1 is ___
Response: > 100 µM

Prompt: Fill in: TGI of CN1CCC(n2cnc(-c3ccc(F)cc3)c2-c2ccnc(NCCO)n2)CC1 is ___
Response: > 25 µM

Prompt: Fill in: TGI of CCc1nccc2c1nc(-c1nonc1N)n2CC is ___
Response: > 25 µM

Prompt: Fill in: TGI of COc1cccc2c1c(C(=O)C(=O)Nc1cc(C)no1)cn2Cc1ccc(F)cc1 is ___
Response: > 64.1 µM

Prompt: Fill in: TGI of CCOC(=O)c1c(N)sc2c1C(C(=O)OCC)CC2 (configuration not stated) is ___
Response: > 100 µM

Prompt: Fill in: TGI of COc1ccc(/C=C2\NC(=S)N(CN3CCCCC3)C2=O)cc1 is ___
Response: > 100 µM
